Overview of recorded percentage damage caused to the plant, SETFA for various compounds
Test system: Setaria faberi (SETFA)
procedureText: Post-emergence Test (Table B2), SETFA
Assay type: in vivo
Design: key: five-point scale: 5=81-100%, 4=61-80%, 3=41-60%, 2=21-40%, 1=0-20% damage
measurementConditions: rate 250 g/Ha, evaluated after 13 days
Format: numeric value only, no unit, no commentary.

[
  {
    "compound": "CCn1c(Cc2cc(C)on2)cc(=O)c(C(=O)O)c1-c1ccc(Cl)c(Cl)c1 [Compound 135]",
    "targetOrTestSystem": "Setaria faberi (SETFA)",
    "numericValue": 0
  },
  {
    "compound": "CCn1c(Cc2cccc(OC)c2)cc(=O)c(C(=O)O)c1-c1ccc(Cl)c(Cl)c1 [Compound 9]",
    "targetOrTestSystem": "Setaria faberi (SETFA)",
    "numericValue": 0
  },
  {
    "compound": "CCn1c(Cc2ccccc2C(F)(F)F)cc(=O)c(C(=O)O)c1-c1ccc(Cl)c(Cl)c1 [Compound 11]",
    "targetOrTestSystem": "Setaria faberi (SETFA)",
    "numericValue": 0
  },
  {
    "compound": "CCn1c(Cc2ccc(C)cc2F)cc(=O)c(C(=O)O)c1-c1ccc(Cl)c(Cl)c1 [Compound 67]",
    "targetOrTestSystem": "Setaria faberi (SETFA)",
    "numericValue": 0
  },
  {
    "compound": "CCOc1cccc(Cc2cc(=O)c(C(=O)O)c(-c3ccc(Cl)c(Cl)c3)n2CC)n1 [Compound 127]",
    "targetOrTestSystem": "Setaria faberi (SETFA)",
    "numericValue": 0
  },
  {
    "compound": "CCn1c(Cc2ccc(OC)cc2F)cc(=O)c(C(=O)O)c1-c1ccc(Cl)c(Cl)c1 [Compound 89]",
    "targetOrTestSystem": "Setaria faberi (SETFA)",
    "numericValue": 0
  },
  {
    "compound": "CCn1c(Cc2ccc(C#N)c(=O)[nH]2)cc(=O)c(C(=O)O)c1-c1ccc(Cl)c(Cl)c1 [Compound 114]",
    "targetOrTestSystem": "Setaria faberi (SETFA)",
    "numericValue": 0
  }
]

**Q:** For CCn1c(Cc2cccc(C(F)(F)F)c2)cc(=O)c(C(=O)O)c1-c1ccc(Cl)c(Cl)c1 [Compound 8] , what is its reported percentage damage caused to the plant, SETFA?
**A:** 0

* * *

Tested on: Amaranthus palmeri (AMAPA)
procedureText: Pre-emergence Test (Table B1), AMAPA
Format: in vivo
measurementConditions: Rate 1000 g/Ha, evaluated after 13 days
parameter: Pre-emergence Test, percentage damage caused to the plant (five-point scale), AMAPA

Answered cases to consult:
[
  {
    "smilesData": "CCn1c(Cc2ccc(O)nn2)cc(=O)c(C(=O)O)c1-c1ccc(Cl)c(Cl)c1",
    "result": 0
  },
  {
    "smilesData": "CCn1c(Cc2ccc(OC)cc2Cl)cc(=O)c(C(=O)O)c1-c1ccc(Cl)c(Cl)c1",
    "result": 0
  }
]

# evaluate next
**Q:** For `CCOC(=O)c1cccc(Cc2cc(=O)c(C(=O)O)c(-c3ccc(Cl)c(Cl)c3)n2CC)n1` , what is its reported Pre-emergence Test, percentage damage caused to the plant (five-point scale), AMAPA?
**A:** 0

Values from patent US20260013501A1
